Assay: UV light transmittance in a quartz plate (Australian Method)
Assay type: physicochemical
Details: solution of 2.0 mg/cm^2 in a quartz plate, 320 to 360 nm
Quantity Name: blockage of the passage of UV light incidence

{"columns": ["Compound", "Obs Value"],
 "data": [
  ["OCCN1CCN(CCCN2c3ccccc3Sc3ccc(C(F)(F)F)cc32)CC1", "~100%"],
  ["c1ccc2c(c1)Nc1ccccc1S2 [PHT, 10H-phenothiazine]", "~100%"],
  ["CN1CCN(CCCN2c3ccccc3Sc3ccc(C(F)(F)F)cc32)CC1", "~100%"]
]}

Okay, next one:
stdin: Identify measured blockage of the passage of UV light incidence corresponding to CSc1ccc2c(c1)N(CCC1CCCCN1C)c1ccccc1S2 (stereo not shown)
stdout: ~100%
